The measured values listed here are drawn from the supplement of paper PMC10981050.

The following compounds are shown together with reported cell viability values.
System: OCI-AML2
procedureText: cell viability relative to vehicle control; higher = less cytotoxic;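 note: after 48 h exposure read by CellTiter-Glo luminescence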
runParameters: 10 µM; SRSF2 genotype: wt/wt
Structures can show the parent of a compound that is named as a salt.
Give just the number in %; leave the unit off.

O=C(NCCO)c1cccc(-c2cc(Nc3ccc(OC(F)(F)F)cc3)ncn2)c1
72.3
CCOC(=O)C1=C[C@@H](OC(CC)CC)[C@H](NC(C)=O)[C@@H](N)C1 [Oseltamivir Phosphate]
104
COc1cc(C(=O)NC2CCCNC2)cc(OC)c1OC (stereo not drawn) [Troxipide]
105
O=c1[nH]cnc2[nH]ncc12 [Allopurinol Sodium (Aloprim)]
95.1
O=C(NCCCNc1nc(Nc2cccc(CN3CCOCC3)c2)ncc1C1CC1)C1CCC1
21.4
CC(=O)O[C@H](CC=C(C)C)C1=CC(=O)c2c(O)ccc(O)c2C1=O
0.59
COc1cc2ncnc(Sc3nnc(C)s3)c2cc1OC
16.7
CN(C)c1ccc2nc3c(C(=O)O)cc(=O)c(O)c-3oc2c1
78.8

Lookup: Request: cell viability, test system OCI-AML2, entry `c1cc(-c2cnn3cc(-c4ccc(OCCN5CCCCC5)cc4)cnc23)ccn1`
Found: 36.2

Lookup: Kindly state the measured cell viability obtained for COc1cc2c(cc1OC)[C@@H]1Cc3ccc(OC)c(OC)c3CN1CC2 [Tetrahydropalmatine hydrochloride] with OCI-AML2.
Found: 83.9

Lookup: I'm curious: which cell viability was measured for C/C=C(/C)C(=O)O[C@H]1[C@@H](OC(C)=O)c2c(ccc3ccc(=O)oc23)OC1(C)C [(+)-Praeruptorin A] tested on OCI-AML2?
Found: 104

Lookup: Which measured cell viability belongs to `CN[C@@H](C)C(=O)N[C@H](C(=O)N1CCC[C@H]1c1nc(C(=O)c2ccc(F)cc2)cs1)C1CCCCC1` , tested on OCI-AML2?
Found: 90.5

Lookup: GET /values?readout=cell viability&system=OCI-AML2&item= CCCCCC(O)C=CC1C(O)CC(=O)C1CCCCCCC(=O)O (stereo not drawn)
Found: 62.1

Lookup: Kindly state the measured cell viability obtained for `Nc1ccccc1NC(=O)c1ccc(CNc2nccc(-c3cccnc3)n2)cc1` with OCI-AML2.
Found: 3.29

Lookup: Notebook: pull reported cell viability for OCI-AML2, entry `C=CC(=O)Nc1cccc(Oc2nc(Nc3ccc(N4CCN(C)CC4)cc3)ncc2Cl)c1`
Found: 5.07

Lookup: # query: cell viability | item C[C@H](NCc1ccc(OCc2cccc(F)c2)cc1)C(N)=O [Safinamide] | system: OCI-AML2
Found: 106

Lookup: Request: cell viability, test system OCI-AML2, entry `C#C[C@]1(O)CC[C@H]2[C@@H]3CCC4=CC(=O)CC[C@@H]4[C@H]3CC[C@@]21CC`
Found: 108

Lookup: GET /values?readout=cell viability&system=OCI-AML2&item= CC(=O)c1ccc(C)cc1O [2'-Hydroxy-4'-methylacetophenone]
Found: 107

* * *

Tested on: MOLM14
procedureText: cell viability relative to vehicle control; higher = less cytotoxic
runParameters: 10 µM; SRSF2 genotype: SRSF2 wt/wt
measurementLabel: cell viability

COc1cc([C@@H]2c3cc4c(cc3[C@@H](O[C@@H]3O[C@@H]5CO[C@@H](c6cccs6)O[C@H]5[C@H](O)[C@H]3O)[C@H]3COC(=O)[C@H]23)OCO4)cc(OC)c1O [Teniposide (Vumon)]
0.37%
CO[C@H]1/C=C/O[C@@]2(C)Oc3c(C)c(O)c4c(O)c(c5c(nc6cc(C)ccn65)c4c3C2=O)NC(=O)/C(C)=C\C=C\[C@H](C)[C@H](O)[C@@H](C)[C@@H](O)[C@@H](C)[C@H](OC(C)=O)[C@@H]1C
101%
CC(C)NC(=O)COc1cccc(-c2nc(Nc3ccc4[nH]ncc4c3)c3ccccc3n2)c1
89.8%
O=C(O)C=Cc1cccc(O)c1 [3-Hydroxycinnamic acid]
93.2%
O=C1OC(C(O)CO)C([O-])=C1O.[Na+] (configuration not stated) [Sodium erythorbate]
110%

Lookup: Value lookup for cell viability; key = `O=C1CC[C@@H](C(=O)N2CSC[C@H]2C(=O)O)N1`
Found: 104%

Lookup: Dear colleague, I am looking for the recorded cell viability of the following compound: `Nc1cccc(S(=O)(=O)N2CCCN(S(=O)(=O)c3ccc4c(c3)OCCO4)CC2)c1`
Found: 97.7%
